Taken from PubChem BioAssay.

target-or-test-system: Potassium voltage-gated channel subfamily KQT member 2 (Rattus norvegicus) (UniProt O88943)
Sequence (O88943 whole entry, looked up): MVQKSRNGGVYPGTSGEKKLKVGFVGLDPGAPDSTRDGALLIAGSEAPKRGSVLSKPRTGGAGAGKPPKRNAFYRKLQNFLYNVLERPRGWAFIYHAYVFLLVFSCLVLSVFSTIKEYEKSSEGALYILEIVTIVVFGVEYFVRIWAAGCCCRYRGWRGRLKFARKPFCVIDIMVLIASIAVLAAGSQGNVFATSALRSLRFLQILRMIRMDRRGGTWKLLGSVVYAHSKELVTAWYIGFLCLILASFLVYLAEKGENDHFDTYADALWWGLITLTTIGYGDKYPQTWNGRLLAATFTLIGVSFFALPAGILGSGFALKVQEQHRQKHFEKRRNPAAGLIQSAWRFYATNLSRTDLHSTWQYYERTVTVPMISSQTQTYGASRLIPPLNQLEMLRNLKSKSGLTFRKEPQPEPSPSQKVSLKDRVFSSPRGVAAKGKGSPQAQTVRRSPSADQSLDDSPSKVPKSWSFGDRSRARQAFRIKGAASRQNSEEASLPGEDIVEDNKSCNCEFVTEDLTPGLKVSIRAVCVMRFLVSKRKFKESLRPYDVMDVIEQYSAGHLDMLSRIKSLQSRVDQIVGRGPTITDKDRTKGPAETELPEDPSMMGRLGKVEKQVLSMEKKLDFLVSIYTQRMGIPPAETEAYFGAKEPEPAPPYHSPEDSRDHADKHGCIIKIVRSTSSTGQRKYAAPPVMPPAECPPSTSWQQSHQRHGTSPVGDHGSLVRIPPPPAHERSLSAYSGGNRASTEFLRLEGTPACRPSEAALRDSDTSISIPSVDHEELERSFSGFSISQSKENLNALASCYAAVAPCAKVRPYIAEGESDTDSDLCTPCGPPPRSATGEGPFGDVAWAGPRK
measurement-protocol: rat KCNQ2 channel potentiation, selectivity assay for KCNQ1 potentiator project, KCNQ2-CHO-K1 cells (AID 493009);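 note: assay conditions were tuned for KCNQ1 rather than KCNQ2 modulators; signal is max minus min fluorescence divided by baseline after thallium stimulus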
test-conditions: FluxOR thallium flux fluorescence, at 10 µM, scaled: buffer 0, activator control 100
Activity calls are given as the source filed them.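 Rule for the calls: active = mean duplicate potentiation above the buffer control mean plus 5 SD of buffer wells; inactive = the rest.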
Can you answer with just one of these options? yes = active, no = inactive

# fetch the recorded call for CCOC(=S)NC(=O)c1sc2ccccc2c1Cl here yes

For this compound, state the assay outcome: CCCCN1CNC(=S)N(c2ccccc2OCC)C1 no

Per the records of this test, what outcome belongs to COc1ccc(S(=O)(=O)Nc2cccc3ccc(O)cc23)cc1 ? no

What outcome does the record of this test show for CCOC(=O)Cn1c(=S)[nH]c2c(oc3ccc(Cl)cc32)c1=O ? yes

Could you please tell me the result logged for Cc1cc(/C=N\NC(=O)CC(=O)NC2CCCCC2)c(C)n1-c1cccc(Cl)c1Cl in this assay? yes

Dear all, I need the recorded test outcome for Cc1cc2ccccn2c1C(=S)NC(=O)c1ccccc1 , thank you. yes

Just curious, what result did Cn1c(=O)cc(NCc2ccccc2)[nH]c1=O get here? no

Which result was noted for this compound in the test: CCc1cc(=O)oc2cc(OC(C)C(=O)NCC(O)c3ccccc3)c(Cl)cc12 (stereo unspecified) no

Could you please tell me the result logged for O=C(/C=C/c1ccccc1Cl)c1ccccc(=O)c1O in this assay? yes

How did this test come out for Cc1ccc(C(=O)OCC(=O)NCCC2=CCCCC2)s1 ? no

Fill in: this test's call for Cc1ccccc1C([O-])=Nc1ccc[n+](-c2nc3ccccc3nc2NS(=O)(=O)c2ccccc2)c1 is ___ no

* * *

Test system: TRPC4 beta (transient receptor potential cation channel C4), mouse
measurement-protocol: activators of mouse TRPC4 channel, confirmation, cell-based, Fluo4 calcium, HEK293 TRPC4beta/mu-opioid, duplicates, 10 µM (AID 2426);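 for activation: percent rise of integrated ratio over buffer wells lacking compound which define 0%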
test-conditions: Fluo4 calcium fluorescence, at 10 µM; hits give high values
Calls of active or inactive are those of the source.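 The calls were made as follows: active = fluorescence ratio normalized to control raised more than 50% in primary screen plus both repeat runs; inactive = the rest.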
readout-kind: activation

The cases that follow already have their activation on record.
compound: COc1cccc(CC2(CO)CCCN(Cc3ccccc3-c3ccco3)C2)c1 (stereo unspecified)
target-or-test-system: TRPC4 beta (transient receptor potential cation channel C4), mouse
value-observed: inactive

compound: CCOC(=O)C1(CCCc2ccccc2)CCN(Cc2cn(CC)nc2C)CC1
target-or-test-system: TRPC4 beta (transient receptor potential cation channel C4), mouse
value-observed: 153% (active)

compound: CCOc1ccccc1OCC(=O)Nc1cc(S(=O)(=O)N2CCCCC2)ccc1N1CCN(CC)CC1
target-or-test-system: TRPC4 beta (transient receptor potential cation channel C4), mouse
value-observed: 195% (active)

compound: Cc1ccc(S(=O)(=O)Nc2cccc(C(=O)NCC(c3ccccc3)N(C)C)c2)cc1F (stereo unspecified)
target-or-test-system: TRPC4 beta (transient receptor potential cation channel C4), mouse
value-observed: 84% (active)

Would you mind giving activation for every compound in the list below?
1. Cc1onc(-c2ccccc2)c1C(=O)NNC(=S)NC(=O)/C=C/c1ccccc1
2. Cc1cc(C)n(-c2nc(SCCN(C)C)c3c4c(sc3n2)CCCC4)n1
3. FC(F)(F)c1cnc(N2CCCN(C(=S)Nc3ccccc3)CC2)c(Cl)c1
4. Cc1ccc(COn2c(-c3ccc(Cl)cc3Cl)nc3ncccc32)cc1
5. O=c1c2c(-c3ccccc3)csc2ncn1/N=C/c1cccc([N+](=O)[O-])c1O
6. COc1ccc(C(CNC(=O)c2ccc(S(=O)(=O)N(C)C)cc2)N(C)C)cc1 (stereo unspecified)
7. COc1cccc(-c2nn(-c3ccccc3)cc2CN(C)C(C)c2ccncn2)c1 (stereo unspecified)
8. COc1cc(OC)cc(C(=O)NCCCN2CCN(CCCNC(=O)c3cc(OC)cc(OC)c3)CC2)c1

1. inactive
2. 162% (active)
3. 208% (active)
4. inactive
5. inactive
6. 296% (active)
7. inactive
8. 121% (active)

For each of the items listed, what is its activation?
1. Cc1cc(NCc2ccccc2)nc2ccccc12
2. CN(C)CCCN(C(=O)c1ccc(S(=O)(=O)N(C)C2CCCCC2)cc1)c1nc2ccc(F)cc2s1

1. 95% (active)
2. 155% (active)

Below are some compounds; for each one, tell me its activation.
1. CCc1nc(NCCc2ccccn2)c2nnn(Cc3ccccc3F)c2n1
2. CN(C)CCCN(C(=O)c1ccc(S(=O)(=O)N(C)Cc2ccccc2)cc1)c1nc2cc3c(cc2s1)OCO3
3. O=C(Cn1c(-c2ccccc2)c[n+]2ccsc12)c1ccc(Br)cc1

1. 154% (active)
2. inactive
3. inactive
